# Tested on: Plasmodium berghei
# experimental details: Luciferase/luciferin-expressing antifolate-resistant parasites were used to infect a culture of HepG2 cells that were pre-incubated with compounds. Infected hepatocytes emit light due to the luciferase reaction. Assay results are presented as the percent inhibition of light emission compared to control. […]
# Format: functional
# measurement conditions: sporozoite, FFLUC_HILL_SLOPE 1.22, FFLUC_R_SQUARED 0.112, read-out: LUCIFERASE INFECTION ASSAY - IC50
measurement kind: IC50

Find the measured IC50 of CC(C)(C)C1=CSC(=C2Sc3ccccc3C2=O)N1 and report it.
> 11.4 µM

###

# Tested on: Plasmodium berghei
# experimental details: Luciferase/luciferin-expressing antifolate-resistant parasites were used to infect a culture of HepG2 cells that were pre-incubated with compounds. Infected hepatocytes emit light due to the luciferase reaction. Assay results are presented as the percent inhibition of light emission compared to control. […]
# Assay type: functional
# measurement conditions: sporozoite, HEPG2TOX_HILL_SLOPE 3.2, HEPG2TOX_R_SQUARED 0.878, PBLUC_HILL_SLOPE 4.82, PBLUC_R_SQUARED 0.722, read-out: LUCIFERASE INFECTION ASSAY - IC50
measurement kind: IC50 (µM)
# value in µM; strip the unit string

Enter recorded IC50 with Plasmodium berghei for O=C(CCn1cnc2ccccc2c1=O)Nc1ccc(Br)cn1 here.
3.02

###

# Tested on: Plasmodium berghei
# experimental details: Luciferase/luciferin-expressing antifolate-resistant parasites were used to infect a culture of HepG2 cells that were pre-incubated with compounds. Infected hepatocytes emit light due to the luciferase reaction. Assay results are presented as the percent inhibition of light emission compared to control. […]
# Format: functional
# measurement conditions: sporozoite, HEPG2TOX_HILL_SLOPE 8.42, HEPG2TOX_R_SQUARED 0.9, PBLUC_HILL_SLOPE 13.4, PBLUC_R_SQUARED 0.519, read-out: LUCIFERASE INFECTION ASSAY - IC50
measurement kind: pIC50
Please report pIC50 as the negative decimal logarithm of the molar concentration, giving only the number.

Find the measured pIC50 of Cc1cccc(-c2nc3ccnc(Nc4ccc(C(C)C)cc4)c3[nH]2)c1 and report it.
5.07

###

# System: Plasmodium berghei
# experimental details: Luciferase/luciferin-expressing antifolate-resistant parasites were used to infect a culture of HepG2 cells that were pre-incubated with compounds. Infected hepatocytes emit light due to the luciferase reaction. Assay results are presented as the percent inhibition of light emission compared to control. […]
# Type: functional
# measurement conditions: sporozoite, PBLUC_HILL_SLOPE 3.64, PBLUC_R_SQUARED 0.503, read-out: LUCIFERASE INFECTION ASSAY - IC50
measurement kind: pIC50
Please report pIC50 as the negative decimal logarithm of the molar concentration, giving only the number.

Find the measured pIC50 of Cc1ccc2nc(NC(=O)c3ccc(Cl)cc3)c(C(=O)NC3CCCCC3)n2c1 and report it.
5.45

###

# System: Plasmodium berghei
# experimental details: Luciferase/luciferin-expressing antifolate-resistant parasites were used to infect a culture of HepG2 cells that were pre-incubated with compounds. Infected hepatocytes emit light due to the luciferase reaction. Assay results are presented as the percent inhibition of light emission compared to control. […]
# Assay type: functional
# measurement conditions: sporozoite, HEPG2TOX_HILL_SLOPE 0.147, HEPG2TOX_R_SQUARED 0.538, PBLUC_HILL_SLOPE 1.03, PBLUC_R_SQUARED 0.662, read-out: LUCIFERASE INFECTION ASSAY - IC50
measurement kind: pIC50
Please report pIC50 as the negative decimal logarithm of the molar concentration, giving only the number.

Find the measured pIC50 of CC(C)(CNC(=O)c1ccc(F)cc1)SCc1ccc(F)cc1 and report it.
5.45
